- TEST PROTOCOL: Chemical stability of the compound in pH 4 aqueous solution assessed as degradation by measuring residual rate incubated measured after 2 weeks at 65 degC by HPLC analysis
- Format: physicochemical
- TEST SETTINGS: read-out: Stability
MEASURED ATTRIBUTE: remaining at 336 h
The reply should consist of the numeric value with the unit placed after it.

get_value(item= `CC(C)(C)[C@H](NC(=O)[C@H](Cc1ccncc1)NC(=O)CNC(=O)CC[C@H](NS(=O)(=O)c1ccc(Cl)c(C(F)(F)F)c1)C(=O)O)C(=O)Nc1ccc(C(=O)N2CCC(C(=O)N[C@H](CCCCN)C(=O)N3CC[C@H](N)C3)CC2)cc1` , readout=remaining at 336 h) returns 98.2%
